- test target: Potassium voltage-gated channel subfamily KQT member 2 (Rattus norvegicus)
- test summary: rat KCNQ2 channel potentiation, selectivity assay for KCNQ1 potentiator project, KCNQ2-CHO-K1 cells (AID 493009);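 note: assay conditions were tuned for KCNQ1 rather than KCNQ2 modulators; signal is max minus min fluorescence divided by baseline after thallium stimulus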
- cond: FluxOR thallium flux fluorescence, at 10 µM; hits give high values, scaled: buffer 0, activator control 100
Calls of active or inactive are those of the source.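 Rule for the calls: active = mean duplicate potentiation above the buffer control mean plus 5 SD of buffer wells; inactive = the rest.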

{"compound": "N#C/C(=C\\c1ccc(-c2ccccc2[N+](=O)[O-])o1)C(=O)Nc1nc(-c2cccs2)cs1", "potentiation": "224% (active)"}
{"compound": "C=CCNC(=S)Nc1sc2c(c1C(=O)OCC)CC(C(C)C)OC2 (stereo unspecified)", "potentiation": "246% (active)"}
{"compound": "O=C(NC(=S)N1CCCCCC1)c1ccc(Cl)cc1Cl", "potentiation": "158% (active)"}
{"compound": "O=C(CSc1nnc(-c2ccco2)o1)Nc1cccc([N+](=O)[O-])c1", "potentiation": "inactive"}
{"compound": "CCC1(c2ccc(Cl)cc2)NC(=S)N(c2ccc(C)cc2)N1 (stereo unspecified)", "potentiation": "604% (active)"}
{"compound": "Cc1ccc(NC(=S)NC(=O)c2ccc(-c3ccccc3)cc2)c(C)c1", "potentiation": "inactive"}

====

- test target: Potassium voltage-gated channel subfamily KQT member 2 (Rattus norvegicus) (UniProt O88943)
- Sequence (O88943 whole entry, looked up): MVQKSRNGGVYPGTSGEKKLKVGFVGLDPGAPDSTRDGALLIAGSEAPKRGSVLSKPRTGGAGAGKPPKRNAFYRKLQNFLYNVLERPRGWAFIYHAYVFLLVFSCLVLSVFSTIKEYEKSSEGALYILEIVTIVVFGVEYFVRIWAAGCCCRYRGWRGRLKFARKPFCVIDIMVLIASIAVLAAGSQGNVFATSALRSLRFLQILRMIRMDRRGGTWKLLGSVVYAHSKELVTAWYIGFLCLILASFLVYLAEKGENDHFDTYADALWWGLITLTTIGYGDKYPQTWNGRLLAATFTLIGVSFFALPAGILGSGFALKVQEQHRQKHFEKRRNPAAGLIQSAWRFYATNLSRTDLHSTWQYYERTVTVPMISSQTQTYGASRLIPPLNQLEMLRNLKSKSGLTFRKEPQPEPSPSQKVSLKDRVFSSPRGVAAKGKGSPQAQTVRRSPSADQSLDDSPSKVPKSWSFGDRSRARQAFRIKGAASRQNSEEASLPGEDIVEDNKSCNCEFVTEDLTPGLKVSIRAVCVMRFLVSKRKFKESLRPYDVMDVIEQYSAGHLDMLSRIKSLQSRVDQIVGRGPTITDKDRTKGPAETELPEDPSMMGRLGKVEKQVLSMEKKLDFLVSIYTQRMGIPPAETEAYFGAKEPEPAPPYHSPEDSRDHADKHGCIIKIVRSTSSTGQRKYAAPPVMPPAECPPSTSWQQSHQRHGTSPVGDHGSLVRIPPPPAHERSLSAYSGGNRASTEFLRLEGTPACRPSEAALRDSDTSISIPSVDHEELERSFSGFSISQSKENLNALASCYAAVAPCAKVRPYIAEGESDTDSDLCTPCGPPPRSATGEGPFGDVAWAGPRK
- test summary: rat KCNQ2 channel potentiation, selectivity assay for KCNQ1 potentiator project, KCNQ2-CHO-K1 cells (AID 493009);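 note: assay conditions were tuned for KCNQ1 rather than KCNQ2 modulators; signal is max minus min fluorescence divided by baseline after thallium stimulus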
- cond: FluxOR thallium flux fluorescence, at 10 µM, scaled: buffer 0, activator control 100
Calls of active or inactive are those of the source.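 Rule for the calls: active = mean duplicate potentiation above the buffer control mean plus 5 SD of buffer wells; inactive = the rest.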
Labels: active, inactive

{"molecule": "O=C(N/N=C/c1ccc([N+](=O)[O-])o1)c1sc2ccccc2c1Cl", "group": "inactive"}
{"molecule": "CCC(C)c1ccccc1OCCCNC1CCCC1 (configuration not stated)", "group": "inactive"}
{"molecule": "O=c1c(Cl)c(Cl)cnn1Cc1nnc(-c2ccccc2Br)o1", "group": "inactive"}
{"molecule": "CCN(c1ccc(NS(=O)(=O)c2cc(Cl)ccc2Cl)cc1)C(C)C", "group": "inactive"}
{"molecule": "CC(Sc1nncs1)C(=O)NC1CCCCC1C (configuration not stated)", "group": "inactive"}
{"molecule": "CC1CCCCN1CCCNC(=O)Cn1ncc2c([nH]c3ccccc32)c1=O (configuration not stated)", "group": "inactive"}
{"molecule": "CCOC(=O)c1n[nH]n2c1nc(=S)c1ccccc12", "group": "active"}
{"molecule": "Cc1ccc(C2C(C#N)=C(N)OC3=C2C(=O)CC(C)(C)C3)s1 (configuration not stated)", "group": "inactive"}
{"molecule": "Cc1nn(C)c(C(=O)NC(=S)Nc2ccc([N+](=O)[O-])cc2)c1Cl", "group": "active"}
{"molecule": "COc1ccc(CN(C)C(=O)c2ccc3ccccc3n2)cc1F", "group": "inactive"}
{"molecule": "CC(=O)NC(CC(=O)O)C(=O)O (configuration not stated)", "group": "inactive"}
{"molecule": "O=C1CC(c2cccs2)Cc2nc(NC(=O)C3CC3)ncc21 (configuration not stated)", "group": "inactive"}
{"molecule": "CC(C)CC(=O)NC(=S)Nc1nc(-c2ccccc2)cs1", "group": "active"}
{"molecule": "Cc1cc(C)nc(N/N=C/c2cccc3ccccc23)n1", "group": "inactive"}
{"molecule": "Cc1ccc(S(=O)(=O)/N=C(\\N)Nc2nc(C)c3ccccc3n2)cc1", "group": "inactive"}
{"molecule": "COc1ccc(Cn2c(=O)c3[nH]cnc3n(-c3ccccc3C)c2=O)cc1", "group": "inactive"}
{"molecule": "CCOC(=O)c1c(CN2CCN(CCO)CC2)n(C)c2cc(Br)c(OC)cc12", "group": "inactive"}
{"molecule": "COCc1cc(C)nc(NCCO)c1C#N", "group": "inactive"}
{"molecule": "O=C(NC(=S)N1CCc2ccccc21)c1ccccc1Br", "group": "active"}
{"molecule": "CCc1ccc2oc(C(=O)NC3CCS(=O)(=O)C3)cc(=O)c2c1 (configuration not stated)", "group": "inactive"}
{"molecule": "Oc1c(Br)cc(Br)cc1CNc1cccc2cccnc12", "group": "inactive"}
{"molecule": "O=C(Nc1cccc(S(=O)(=O)NC2=NCCC2)c1)c1c(F)cccc1Cl", "group": "inactive"}
{"molecule": "Nc1c(C(=O)Nc2ccc(F)cc2)nnn1-c1cccc(C(F)(F)F)c1", "group": "inactive"}
{"molecule": "CC(=O)c1ccc(N2CCN(C(=O)c3ccc(NC(=O)C4CCCO4)cc3)CC2)cc1 (configuration not stated)", "group": "inactive"}
{"molecule": "COc1ccc(OCC(=O)NC(=S)Nc2ccc(N3CCOCC3)c(Cl)c2)cc1", "group": "inactive"}
{"molecule": "CC(C)c1ccc(C(=O)NC2=NCCS2)cc1", "group": "inactive"}
{"molecule": "O=[N+]([O-])c1ccc(Nc2ccc(Cl)cc2)nc1", "group": "active"}
{"molecule": "c1ccc(CCCNc2ncnc3nc[nH]c23)cc1", "group": "active"}
{"molecule": "O=C(NC(=S)N1CCN(Cc2ccc3c(c2)OCO3)CC1)c1ccc(Cl)cc1", "group": "active"}
{"molecule": "S=C(NCCc1ccccc1)N/N=C/C1CCCCC1", "group": "inactive"}
{"molecule": "CCOC(=O)c1sc2ncnc(NCc3ccco3)c2c1C", "group": "active"}
{"molecule": "COC(=O)c1cccnc1NC(=S)NC1CCCCC1", "group": "active"}
{"molecule": "CCCCn1c(=O)[nH]c(=O)c2c1nc(Cn1ncc(Cl)c(Cl)c1=O)n2CCC", "group": "inactive"}
{"molecule": "Cc1ccc2nsnc2c1S(=O)(=O)Nc1cccc2nsnc12", "group": "active"}
{"molecule": "O=C(COc1ccccc1)NC(=S)Nc1ccc(Br)cn1", "group": "active"}
{"molecule": "Cc1nc(NC(=S)NC(=O)c2ccccc2)sc1C", "group": "inactive"}
{"molecule": "O=C(COc1cccnc1[N+](=O)[O-])Nc1cccc(S(=O)(=O)N2CCCCC2)c1", "group": "inactive"}
{"molecule": "CC(C)C1Cc2c(sc3[nH]c(=S)n(Cc4ccccc4)c(=O)c23)CO1 (configuration not stated)", "group": "active"}
{"molecule": "COc1ccc(/C=N/N=C2/NC(=O)C(c3ccccc3)S2)c(OC)c1 (configuration not stated)", "group": "inactive"}
{"molecule": "COc1cccc(/C=N/Nc2snc(SC)c2C#N)c1O", "group": "inactive"}
{"molecule": "COc1ccc(N2CCN(C(=O)COC(=O)/C=C/c3ccc(OC(F)F)cc3)CC2)cc1", "group": "active"}
{"molecule": "COc1ccccc1OCCSc1nc2ccccc2n1CCC(=O)O", "group": "inactive"}
{"molecule": "CCCCn1c(N)c(C(=S)NC(=O)CC(C)(C)C)c(=O)n(C)c1=O", "group": "active"}
{"molecule": "CCn1c(CCNC(=O)c2ccc(Cl)cc2Cl)n[nH]c1=S", "group": "inactive"}
{"molecule": "FC(F)(F)c1cccc(CN2CCC(c3cc(-c4cccs4)n[nH]3)CC2)c1", "group": "inactive"}
{"molecule": "O=c1c2ccccc2nc(-c2cccc(Cl)c2)n1O", "group": "active"}
{"molecule": "CCC(=O)NNc1nc2c(Cl)cccc2s1", "group": "inactive"}
